// cytotoxicity at 10 µM lookup, one value per entry
# run description: Toxicity liver stage against HepG2, at 10uM
# Format: cell-based
# Set-up: test concentration 10 uM, cell line HepG2-A16-CD81EGFP
# experimental setup: human, HepG2-A16-CD81EGFP cells; read-out: INHIBITION

compound: COc1cc(CNCC2CN(C3CC3)CCO2)cc(OC)c1 (stereo not drawn)
units text: %
cytotoxicity at 10 µM: -24.3
//
compound: CCc1nnsc1C(=O)N1CCCC1c1c(C)nn(C)c1OC (stereo not drawn)
units text: %
cytotoxicity at 10 µM: -1.67
//
compound: COc1ccc(CNC(=O)NC2CCN(CC3CCCC3)CC2)cn1
units text: %
cytotoxicity at 10 µM: -8.01
//
compound: CN1CCc2c(CNC(=O)c3nccn3C)cncc2C1
units text: %
cytotoxicity at 10 µM: -95.7
//
compound: CN(C)Cc1cn2c(n1)CN(C(=O)Cc1ccsc1)CC2
units text: %
cytotoxicity at 10 µM: -136
//
compound: CNC(=O)N1CC[C@@H]2CN(Cc3cccc(Cl)c3)S(=O)(=O)[C@@H]2CC1
units text: %
cytotoxicity at 10 µM: 0.748
//
compound: Cc1nn(C)c2nc(N(Cc3cnn(C)c3)C3CCCCC3)sc12
units text: %
cytotoxicity at 10 µM: -1.24
//
compound: Nc1ccnc(CNc2cc(F)ccc2OCC2CCCO2)n1 (stereo not drawn)
units text: %
cytotoxicity at 10 µM: 17.4
//
compound: CCOC(=O)C1CSCCN1C(=O)c1ccc(-n2nc(C)cc2C)cc1 (stereo not drawn)
units text: %
cytotoxicity at 10 µM: -4.92
//
compound: O=C(NCc1ccccn1)[C@@H]1CC[C@@H]2[C@@H](CCN2c2ncc(F)cn2)O1
units text: %
cytotoxicity at 10 µM: -74.8
//
compound: Cc1n[nH]c(C)c1CCC(=O)NC1CCCN(c2ccccc2F)C1 (stereo not drawn)
units text: %
cytotoxicity at 10 µM: -13.7
//
compound: N#Cc1ccc(C(=O)N2CC(c3nc(-c4ncccn4)no3)C2)cc1
units text: %
cytotoxicity at 10 µM: -0.713
//
compound: Cc1nn(C)c(C)c1NC(=O)CNC(c1ccc(F)cc1)C1CCC1 (stereo not drawn)
units text: %
cytotoxicity at 10 µM: -1.65
//
compound: CNC(=O)COC(=O)c1ccn(-c2ccc(Cl)c(Cl)c2)n1
units text: %
cytotoxicity at 10 µM: 20.9
//
compound: CCn1nc(C)cc1C(=O)N1CCCN(CCCc2ccccc2)CC1
units text: %
cytotoxicity at 10 µM: -1.45
//
compound: Cn1nc(-c2cccs2)cc1[C@H]1CN2CC[C@H]1C[C@@H]2CNS(C)(=O)=O
units text: %
cytotoxicity at 10 µM: -1.39
//
compound: CCN1CC(C(=O)NCCCc2nc(C)c(C)s2)CC1=O (stereo not drawn)
units text: %
cytotoxicity at 10 µM: -7.03
//
compound: COCCN1CCN(Cc2c(C)noc2C)Cc2cccnc21
units text: %
cytotoxicity at 10 µM: -70.1
//
compound: Cc1ccc(-n2nc(C)c3c2NC(=O)CC3c2cnc(N)s2)cc1 (stereo not drawn)
units text: %
cytotoxicity at 10 µM: 5.56
//
compound: COc1ccc(CNC(=O)N(C)CC(C)(C)O)cc1OC
units text: %
cytotoxicity at 10 µM: 6.89
//
compound: CNC(=O)CN1CCCC12CCN(C(=O)c1ccc(F)cc1)CC2
units text: %
cytotoxicity at 10 µM: 5.03
//
compound: O=C(NCCN1CCCCC1)c1cccc(Cl)c1Cl
units text: %
cytotoxicity at 10 µM: 6.04
//
compound: C[C@H]1CN(Cc2cnn(C)c2)C[C@@]12CCN(Cc1cccnc1)C2=O
units text: %
cytotoxicity at 10 µM: 8.99

###

# run description: Toxicity liver stage against HepG2, at 10uM
# Assay type: cell-based
# Design: test concentration 10 uM, cell line HepG2-A16-CD81EGFP
# experimental setup: human, HepG2-A16-CD81EGFP cells; read-out: INHIBITION
// cytotoxicity at 10 µM lookup, one value per entry

compound: CC(C)Oc1cccc(F)c1C(C(=O)O)N(C)Cc1ccon1 (stereo not drawn)
units text: %
cytotoxicity at 10 µM: -33.5
--
compound: CN1CCCC1c1ccc(C(=O)N2CCc3ccccc3C2)s1 (stereo not drawn)
units text: %
cytotoxicity at 10 µM: 1.66
--
compound: CCCN1CCCC2(CCN(c3nc(C)nc4ccsc34)C2)C1=O (stereo not drawn)
units text: %
cytotoxicity at 10 µM: 17.4
--
compound: CCc1nccn1C1CCCN(C(=O)CCCc2ccccn2)C1 (stereo not drawn)
units text: %
cytotoxicity at 10 µM: -18.7
--
compound: Cc1ccccc1OCC1CCCN(c2cc(N)nc(N)n2)C1 (stereo not drawn)
units text: %
cytotoxicity at 10 µM: 29
--
compound: CN(Cc1nc(C(F)(F)F)cs1)C(=O)CCc1ccccn1
units text: %
cytotoxicity at 10 µM: 23.5
--
compound: COCCN1C(=O)[C@@H]2CC[C@H]1CN(C(=O)Cc1c(F)cccc1Cl)C2
units text: %
cytotoxicity at 10 µM: -1.02
--
compound: CCOCCn1nc(C)cc1C(=O)N(C)Cc1cccc2ncccc12
units text: %
cytotoxicity at 10 µM: 4.2
--
compound: O=C(Nc1ccc2c(c1)C(=O)NC2=O)c1ccc(Cl)s1
units text: %
cytotoxicity at 10 µM: -3.96
--
compound: CCn1c(C2CCCN(S(=O)(=O)C3CC3)C2)nn(CCN(C)C)c1=O (stereo not drawn)
units text: %
cytotoxicity at 10 µM: 0.522
--
compound: COc1cccc(CN2C[C@@H]3COC[C@]3(COc3cccnc3)C2)c1
units text: %
cytotoxicity at 10 µM: -64.7
--
compound: COCCN1CCC2(CC1)CC(OCC1CC1)c1ccc(C)cc12 (stereo not drawn)
units text: %
cytotoxicity at 10 µM: 15.5
--
compound: Cc1nc(C(C)C)ncc1C(=O)N1CCc2c(nc(N(C)C)[nH]c2=O)C1
units text: %
cytotoxicity at 10 µM: 14.3
--
compound: O=C(NS(=O)(=O)c1ccccc1Cl)c1cccc2c1OCCO2
units text: %
cytotoxicity at 10 µM: -11
--
compound: O=C(c1ccc2c(c1)CCC2)N1CC[C@H](O)[C@]2(CCCO2)C1
units text: %
cytotoxicity at 10 µM: -8.97
--
compound: COc1cccc(N2CCN(C(=O)c3noc4c3CCCCC4)CC2)c1
units text: %
cytotoxicity at 10 µM: 9.4
--
compound: c1ccc(OCCCN2CCN(c3ccc4nncn4n3)CC2)cc1
units text: %
cytotoxicity at 10 µM: -0.421
--
compound: O=S(=O)(c1ccccc1)N1CCC2(CCCN2Cc2ccccc2Cl)C1 (stereo not drawn)
units text: %
cytotoxicity at 10 µM: -74.5
--
compound: CS(=O)(=O)CCN1CCC(Nc2c(Cl)cccc2C#N)CC1
units text: %
cytotoxicity at 10 µM: 2.22
--
compound: CCn1cc(CN2CCCN(C(=O)C3(C#N)CCCCC3)CC2)cn1
units text: %
cytotoxicity at 10 µM: -53.5
--
compound: Cc1cc(-c2ccc(=O)n(CCNC(=O)C3CCCCC3)n2)c(C)o1
units text: %
cytotoxicity at 10 µM: -3.73
--
compound: Cc1cc(F)ccc1S(=O)(=O)NCc1[nH]ncc1Br
units text: %
cytotoxicity at 10 µM: 15.1
--
compound: COCC[C@]1(O)CCN(S(=O)(=O)c2ccc(C)cc2OC)C[C@H]1C
units text: %
cytotoxicity at 10 µM: 11.4

###

# run description: Toxicity liver stage against HepG2, at 10uM
# Assay type: cell-based
# Set-up: test concentration 10 uM, cell line HepG2-A16-CD81EGFP
# experimental setup: human, HepG2-A16-CD81EGFP cells; read-out: INHIBITION
measurement kind: cytotoxicity at 10 µM (%)

compound: CCC(=O)N1CCC(Cc2nccnc2Nc2ccccn2)CC1
measurement kind: cytotoxicity at 10 µM
value reported: 5.82
--
compound: CSc1cc2c(cc1NC(=O)N(C)Cc1ccncc1)OCCO2
measurement kind: cytotoxicity at 10 µM
value reported: 11.4
--
compound: Cc1ccc2oc(C(=O)N3CCC(C(=O)N4CCCC4)CC3)cc2n1
measurement kind: cytotoxicity at 10 µM
value reported: -1.35
--
compound: CC(C)C(C)NC(=O)Nc1ccccc1CN1CCOCC1 (configuration not stated)
measurement kind: cytotoxicity at 10 µM
value reported: 0.795
--
compound: COc1c(C2CCCN2Cc2cn3ccsc3n2)c(C)nn1C (configuration not stated)
measurement kind: cytotoxicity at 10 µM
value reported: -51.2
--
compound: CCc1cnc(CN2CCCC(c3cc(C)[nH]n3)C2)o1 (configuration not stated)
measurement kind: cytotoxicity at 10 µM
value reported: 0.503
--
compound: CCCn1c(C)cc(C(=O)CN2C(=O)c3ccccc3CS2(=O)=O)c1C
measurement kind: cytotoxicity at 10 µM
value reported: -1.94
--
compound: O=C(c1ccc(N2CCCCCC2)nn1)N1CCc2ccccc21
measurement kind: cytotoxicity at 10 µM
value reported: -8.04
--
compound: COc1nn(C)c2c1CCCN(S(=O)(=O)c1ccccc1F)C2
measurement kind: cytotoxicity at 10 µM
value reported: -109
--
compound: O=C(C1CCOCC1)N1CCO[C@H]2[C@@H](OCc3ccncc3)CC[C@@H]21
measurement kind: cytotoxicity at 10 µM
value reported: 5.54
--
compound: CCn1nc(C)c2nnn(CC(=O)Nc3ccc(C)cc3)c(=O)c21
measurement kind: cytotoxicity at 10 µM
value reported: 8.49
--
compound: Cc1nc(CNC(=O)Nc2cc(F)ccc2OC(F)F)no1
measurement kind: cytotoxicity at 10 µM
value reported: 0.311
--
compound: O=C(Nc1cnccn1)[C@@H]1CC[C@@H]2[C@@H](CCN2Cc2nccs2)O1
measurement kind: cytotoxicity at 10 µM
value reported: -136
--
compound: Cc1nc(O)c2nnn(C[C@H]3CCCN3C(=O)c3ccccc3F)c2n1
measurement kind: cytotoxicity at 10 µM
value reported: -20.4
--
compound: CC(=O)N1CCCC2(CN(Cc3ccc(F)cc3)CCO2)C1 (configuration not stated)
measurement kind: cytotoxicity at 10 µM
value reported: 0.283
--
compound: CC(C(=O)N1CCC(Cc2ccc(F)cc2)CC1)n1ccnc1 (configuration not stated)
measurement kind: cytotoxicity at 10 µM
value reported: 4.57
--
compound: Cc1noc(C)c1CN1C[C@@H](NS(=O)(=O)N(C)C)[C@H](C(C)C)C1
measurement kind: cytotoxicity at 10 µM
value reported: 3.61
--
compound: CN1CCN(Cc2ccccc2CNC(=O)c2cc(Br)ccc2F)CC1
measurement kind: cytotoxicity at 10 µM
value reported: 6.37
--
compound: CC(=O)N1CCn2c(C(=O)N(C)C)cnc2C1
measurement kind: cytotoxicity at 10 µM
value reported: 1.54
--
compound: CCN(CC)C(C)CNC(=O)c1cccnc1Oc1cccnc1 (configuration not stated)
measurement kind: cytotoxicity at 10 µM
value reported: -2.09
--
compound: Cc1noc(CNc2ccccc2C(=O)N2CCCC(O)C2)n1 (configuration not stated)
measurement kind: cytotoxicity at 10 µM
value reported: -3.13
--
compound: Cc1ccc(CN(CCCN2CCOCC2)Cc2cncn2C)o1
measurement kind: cytotoxicity at 10 µM
value reported: -40.3
--
compound: Fc1ccc(C2(CNC3=NCCN3)CCCC2)cc1
measurement kind: cytotoxicity at 10 µM
value reported: 12.9
--
compound: Cc1nc(C)c(C(=O)NCCNc2cc(N3CCCC3)ncn2)s1
measurement kind: cytotoxicity at 10 µM
value reported: -73.4
--
compound: CC(C)(C)c1ncc(C(=O)NCc2ccccc2CN2CCCC2)s1
measurement kind: cytotoxicity at 10 µM
value reported: -8.98
--
compound: COc1ccc(CCN2CCC(N3CCN(C)C3=O)CC2)cc1
measurement kind: cytotoxicity at 10 µM
value reported: -6.64
--
compound: CCn1nc(C)c(C(C)NC(=O)c2cccc(NCC(=O)O)c2)c1C (configuration not stated)
measurement kind: cytotoxicity at 10 µM
value reported: 3.04
--
compound: O=C1CC[C@@H](CN(Cc2ccncc2)Cc2nc(CC3CC3)no2)N1
measurement kind: cytotoxicity at 10 µM
value reported: 3.86
--
compound: O=C(NCc1ccccn1)NCC(c1ccco1)N1CCCCC1 (configuration not stated)
measurement kind: cytotoxicity at 10 µM
value reported: -2.93
--
compound: CS(=O)(=O)NC[C@]12COC[C@H]1CN(CCc1ccccc1)C2
measurement kind: cytotoxicity at 10 µM
value reported: 12.3
--
compound: COCCN(CC1CC1)c1nc(CCN)nc2sc(C)c(C)c12
measurement kind: cytotoxicity at 10 µM
value reported: 0.956
--
compound: COCCn1c2c(ccc1=O)CC(NCc1cnn(C)c1)CC2 (configuration not stated)
measurement kind: cytotoxicity at 10 µM
value reported: -103
--
compound: Cc1cc(N(C)C)nc(C2COCCN2Cc2csc(C)n2)n1 (configuration not stated)
measurement kind: cytotoxicity at 10 µM
value reported: 1.75
--
compound: CCOC(C(=O)N1CCn2c(CC)nnc2C1)c1ccccc1 (configuration not stated)
measurement kind: cytotoxicity at 10 µM
value reported: 4.48
--
compound: O=C(c1nnn(-c2ccc(C(F)(F)F)cc2)n1)N1CC(O)C1
measurement kind: cytotoxicity at 10 µM
value reported: -4.63
--
compound: CCO[C@@H]1CC[C@H]2[C@H]1OCCN2CCOCc1ccccc1
measurement kind: cytotoxicity at 10 µM
value reported: -111
--
compound: Cc1noc(CCNC(=O)c2ccc(N(C)C)c(F)c2)n1
measurement kind: cytotoxicity at 10 µM
value reported: 6.05
--
compound: Cc1noc(C)c1CN1CCO[C@H]2[C@H](Oc3ncccc3F)CC[C@@H]21
measurement kind: cytotoxicity at 10 µM
value reported: 2.93
--
compound: O=C(C(NCc1cccc(F)c1F)c1ccccc1)N1CCOCC1 (configuration not stated)
measurement kind: cytotoxicity at 10 µM
value reported: 8.61
--
compound: CN(C)C(=O)C1CCC2(CCNCC2)C1 (configuration not stated)
measurement kind: cytotoxicity at 10 µM
value reported: 8.59
--
compound: c1cc(N2CCC3(COCc4cnc(NCC5CC5)nc43)C2)ncn1 (configuration not stated)
measurement kind: cytotoxicity at 10 µM
value reported: 6.27
--
compound: CCc1c(C(=O)O)nnn1-c1cc(C)ccc1C
measurement kind: cytotoxicity at 10 µM
value reported: -23.7
--
compound: N#Cc1ccc(OCCCN2CCOC(Cn3cncn3)C2)cc1 (configuration not stated)
measurement kind: cytotoxicity at 10 µM
value reported: -0.0581
--
compound: CC1CCCN(Cc2c(C3CCOCC3)[nH]c3ncccc23)C1 (configuration not stated)
measurement kind: cytotoxicity at 10 µM
value reported: -2.03
--
compound: Cc1nc(C)n(CC2CCCN(CCOc3cccc(F)c3)C2)n1 (configuration not stated)
measurement kind: cytotoxicity at 10 µM
value reported: -3.18
--
compound: CCOCCCNC(=O)NC(C)c1ccc(-n2cncn2)cc1 (configuration not stated)
measurement kind: cytotoxicity at 10 µM
value reported: 3.31
--
compound: CC(C)C(C)(CNC(=O)OC(C)(C)C)NC(=O)c1cnccn1 (configuration not stated)
measurement kind: cytotoxicity at 10 µM
value reported: -6.62
